These measurements were taken from patent US20250195536A1.

system: KRAS G12D (Homo sapiens, UniProt P01116, G12D)
Sequence (P01116 1-188 isoform P01116-2 G12D): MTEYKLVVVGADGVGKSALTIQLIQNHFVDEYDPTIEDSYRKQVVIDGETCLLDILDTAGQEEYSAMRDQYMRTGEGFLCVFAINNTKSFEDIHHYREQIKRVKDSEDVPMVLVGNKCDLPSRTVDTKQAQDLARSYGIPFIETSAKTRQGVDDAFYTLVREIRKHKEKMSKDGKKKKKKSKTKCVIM
methodDescription: GDP-GTP exchange assay (KRAS G12D);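 further: one dagger IC50 up to 100 nM and two daggers above 100 nM up to 1 μM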
Type: biochemical
details: bodipy-GDP/GppNHp exchange with SOS1; 4 h pre-incubation, 2 h reaction
assayMetric: G12D_exchange (KRAS_G12D exchange assay IC50)

compound | experimentalValue
Cc1nc2c(F)c(-c3cccc(Cl)c3Cl)c(CCC#N)cc2c2c1cc([C@H]1[C@H]3C[C@H](CN(c4cccnc4)C3)N1C(=O)C1CC1)n2[C@H]1[C@H]2CN[C@@H]1C2 (atropisomer, axis not shown; (Ra)) [Example 9] | †
Cc1nc2c(F)c(-c3cccc(Cl)c3Cl)c(CCC#N)cc2c2c1cc([C@H]1[C@H]3C[C@H](CN(c4ccoc(=O)c4)C3)N1C(=O)C1CC1)n2[C@H]1[C@H]2CN[C@@H]1C2 (atropisomer, axis not shown; (Ra)) [Example 73] | †
Cc1nc2c(F)c(-c3cccc(Cl)c3Cl)c(CCC#N)cc2c2c1cc([C@H]1[C@H]3C[C@H](CN(c4cccc(OC(F)(F)F)c4)C3)N1C(=O)C1CC1)n2[C@H]1[C@H]2CN[C@@H]1C2 (atropisomer, axis not shown; (Ra)) [Example 20] | ††
Cc1nc2c(F)c(-c3cccc(Cl)c3Cl)c(CCC#N)cc2c2c1cc([C@H]1[C@H]3C[C@H](CN(c4ncc(C)n4C)C3)N1C(=O)C1CC1)n2[C@H]1[C@H]2CN[C@@H]1C2 (atropisomer, axis not shown; (Ra)) [Example 101] | †
Cc1nc2c(F)c(-c3cccc(Cl)c3Cl)c(CCC#N)cc2c2c1cc([C@H]1[C@H]3C[C@H](CN(c4cncc(C(F)(F)F)c4)C3)N1C(=O)C1CC1)n2[C@H]1[C@H]2CN[C@@H]1C2 (atropisomer, axis not shown; (Ra)) [Example 21] | †
Cc1nc2c(F)c(-c3cccc(Cl)c3Cl)c(CCC#N)cc2c2c1cc([C@H]1[C@H]3C[C@H](CN(c4cccc(Cl)c4)C3)N1C(=O)C1CC1)n2[C@H]1[C@H]2CN[C@@H]1C2 (atropisomer, axis not shown; (Ra)) [Example 19] | ††
Cc1nc2c(F)c(-c3cccc(Cl)c3Cl)c(CCC#N)cc2c2c1cc([C@H]1[C@H]3C[C@H](CN(c4ncc(OC(F)F)cn4)C3)N1C(=O)C1CC1)n2[C@H]1[C@H]2CN[C@@H]1C2 (atropisomer, axis not shown; (Ra)) [Example 45] | †
Cc1nc2c(F)c(-c3cccc(Cl)c3Cl)c(CCC#N)cc2c2c1cc([C@H]1C[C@H]3C[C@H](CN3c3ccccn3)N1C(=O)C1CC1)n2[C@H]1[C@H]2CN[C@@H]1C2 (atropisomer, axis not shown; (Ra)) [Example 118] | †
Cc1cnc(N2C[C@@H]3C[C@H](C2)N(C(=O)C2CC2)[C@H]3c2cc3c(C)nc4c(F)c(-c5cccc(Cl)c5Cl)c(CCC#N)cc4c3n2[C@H]2[C@H]3CN[C@@H]2C3)s1 (atropisomer, axis not shown; (Ra)) [Example 91] | †
Cc1noc(C)c1S(=O)(=O)N1C[C@@H]2C[C@H](C1)N(C(=O)C1CC1)[C@H]2c1cc2c(C)nc3c(F)c(-c4cccc(Cl)c4Cl)c(CCC#N)cc3c2n1[C@H]1[C@H]2CN[C@@H]1C2 (atropisomer, axis not shown; (Ra)) [Example 110] | †
CCOc1cc(N2C[C@@H]3C[C@H](C2)N(C(=O)C2CC2)[C@H]3c2cc3c(C)nc4c(F)c(-c5cccc(Cl)c5Cl)c(CCC#N)cc4c3n2[C@H]2[C@H]3CN[C@@H]2C3)ccn1 (atropisomer, axis not shown; (Ra)) [Example 81] | †
